Molecular target: T1, extracellular domain of human BLyS protein (hBLyS-ECD), His-tagged, Ala134-Leu285 (human, UniProt Q9Y275 134-285)
T1 construct: Expressed in HEK293 cells and purified on a Ni column; also called immunogen
T1 sequence (Q9Y275 134-285): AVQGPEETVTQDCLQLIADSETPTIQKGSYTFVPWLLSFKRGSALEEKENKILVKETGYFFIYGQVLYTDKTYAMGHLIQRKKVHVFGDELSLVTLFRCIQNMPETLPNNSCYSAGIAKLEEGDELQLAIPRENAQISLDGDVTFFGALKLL
Experiment: SPR (Biacore), antibody captured by anti-human Fc, hBLyS-ECD as analyte
kon strictly less than 200000 M⁻¹ s⁻¹ = met. Otherwise not met.

{"columns": ["BINDER", "CAT"],
 "data": [
  ["c20D1B6E9E5 (antibody, V domains shown) VH: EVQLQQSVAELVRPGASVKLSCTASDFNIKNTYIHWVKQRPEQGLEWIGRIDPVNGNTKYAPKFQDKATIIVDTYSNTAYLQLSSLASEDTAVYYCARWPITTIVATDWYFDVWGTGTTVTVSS VL: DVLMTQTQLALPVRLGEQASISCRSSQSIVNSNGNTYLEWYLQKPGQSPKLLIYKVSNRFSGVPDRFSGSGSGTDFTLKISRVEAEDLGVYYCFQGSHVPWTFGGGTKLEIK", "not met"],
  ["c35E6F7C3 (antibody, V domains shown) VH: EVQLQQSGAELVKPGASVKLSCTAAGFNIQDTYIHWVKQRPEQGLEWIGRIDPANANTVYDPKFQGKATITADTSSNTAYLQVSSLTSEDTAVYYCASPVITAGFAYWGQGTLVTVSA VL: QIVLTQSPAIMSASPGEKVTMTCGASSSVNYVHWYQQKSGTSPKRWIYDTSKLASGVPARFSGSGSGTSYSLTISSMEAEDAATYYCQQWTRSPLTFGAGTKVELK", "met"],
  ["c97E7B3F2 (antibody, V domains shown) VH: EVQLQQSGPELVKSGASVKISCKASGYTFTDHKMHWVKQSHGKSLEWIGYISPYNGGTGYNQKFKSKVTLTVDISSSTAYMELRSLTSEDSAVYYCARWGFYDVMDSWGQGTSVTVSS VL: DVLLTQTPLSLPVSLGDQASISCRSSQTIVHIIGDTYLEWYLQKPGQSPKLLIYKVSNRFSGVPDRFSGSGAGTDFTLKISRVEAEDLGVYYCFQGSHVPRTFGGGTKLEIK", "not met"],
  ["c97A3C2H4 (antibody, V domains shown, also called chimeric antibody c97A3C2H4) VH: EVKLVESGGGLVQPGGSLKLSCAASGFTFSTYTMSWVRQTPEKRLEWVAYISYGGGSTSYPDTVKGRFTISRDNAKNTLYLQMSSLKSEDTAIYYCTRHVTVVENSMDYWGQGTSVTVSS VL: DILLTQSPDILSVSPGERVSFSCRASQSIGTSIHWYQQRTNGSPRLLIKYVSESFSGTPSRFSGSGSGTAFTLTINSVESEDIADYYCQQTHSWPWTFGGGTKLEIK", "met"],
  ["c111D10D6G3 (antibody, V domains shown) VH: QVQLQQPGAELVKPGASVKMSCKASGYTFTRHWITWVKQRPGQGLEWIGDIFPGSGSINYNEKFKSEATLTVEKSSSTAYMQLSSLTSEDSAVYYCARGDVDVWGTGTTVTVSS VL: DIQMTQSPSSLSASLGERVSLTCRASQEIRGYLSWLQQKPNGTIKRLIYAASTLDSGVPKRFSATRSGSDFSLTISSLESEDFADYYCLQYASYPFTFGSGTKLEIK", "met"],
  ["c8E7D9C7F5 (antibody, V domains shown, also called chimeric antibody c8E7D9C7F5) VH: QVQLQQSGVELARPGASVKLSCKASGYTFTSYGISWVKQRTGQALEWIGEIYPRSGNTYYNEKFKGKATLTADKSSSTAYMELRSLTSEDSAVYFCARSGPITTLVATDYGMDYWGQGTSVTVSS VL: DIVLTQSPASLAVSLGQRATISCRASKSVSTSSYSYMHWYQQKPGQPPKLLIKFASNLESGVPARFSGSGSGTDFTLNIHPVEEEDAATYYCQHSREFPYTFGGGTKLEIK", "not met"]
]}
